assay_method_text: liver microsomal metabolic stability, monkey
measurement_setup: microsomes
metric_name: half-life at 1 h, 1 µM (min)
Form entry: value (min) — number only.

## Task Retrieve half-life at 1 h, 1 µM measured for Cc1c(-c2ccc(N3CCc4cccc(C(=O)Nc5nc6ccccc6s5)c4C3)nc2C(=O)OCc2ccc(O[C@@H]3O[C@H](CO)[C@H](O)[C@H](O)[C@H]3O)c([N+](=O)[O-])c2)cnn1CC12CC3CC(CC(C3)C1)C2 [Compound A13bGa1] and print it.
## Result 21.2

* * *

assay_method_text: liver microsomal metabolic stability, rat
measurement_setup: microsomes
metric_name: CLint scaled at 1 µM (mL/min/kg)
Use mL/min/kg as the unit, but write only the number.

## Task Provide CLint scaled at 1 µM value for the following compound: `Cc1c(-c2ccc(N3CCc4cccc(C(=O)Nc5nc6ccccc6s5)c4C3)nc2C(=O)OCc2ccc(O[C@@H]3O[C@H](CO)[C@H](O)[C@H](O)[C@H]3O)c([N+](=O)[O-])c2)cnn1CC12CC3CC(CC(C3)C1)C2`
## Result 28.3

// provenance: patent US20260345582A1
